# key: entry, value: t1/2
Assay: Pharmacokinetics of anti-FRα antibodies in wild-type SCID mice
Format: in vivo, mouse
Settings: 5 mg/kg iv bolus, total antibody
Endpoint: t1/2 (days)

Molecule	Observed value
AB1370026: anti-FRα fully human IgG1 antibody; VH SEQ ID NO: 39, VL SEQ ID NO: 40 (antibody, V domains shown) VH: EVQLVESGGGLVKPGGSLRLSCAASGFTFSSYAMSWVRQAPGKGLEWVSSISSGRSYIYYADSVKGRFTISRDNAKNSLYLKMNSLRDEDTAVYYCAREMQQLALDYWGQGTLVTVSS VL: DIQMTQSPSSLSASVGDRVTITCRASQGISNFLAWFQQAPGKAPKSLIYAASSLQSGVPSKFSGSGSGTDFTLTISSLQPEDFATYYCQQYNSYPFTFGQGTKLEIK	16.6
AB1370095: anti-FRα fully human IgG1 antibody; VH SEQ ID NO: 45, VL SEQ ID NO: 46 (antibody, V domains shown) VH: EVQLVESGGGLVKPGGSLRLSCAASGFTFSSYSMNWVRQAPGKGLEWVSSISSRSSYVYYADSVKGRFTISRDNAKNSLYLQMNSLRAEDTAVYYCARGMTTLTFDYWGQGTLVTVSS VL: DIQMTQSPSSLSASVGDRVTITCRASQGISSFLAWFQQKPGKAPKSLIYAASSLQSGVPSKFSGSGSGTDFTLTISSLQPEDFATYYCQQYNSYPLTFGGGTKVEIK	7.8
AB1370035: anti-FRα fully human IgG1 antibody; VH SEQ ID NO: 41, VL SEQ ID NO: 42 (antibody, V domains shown) VH: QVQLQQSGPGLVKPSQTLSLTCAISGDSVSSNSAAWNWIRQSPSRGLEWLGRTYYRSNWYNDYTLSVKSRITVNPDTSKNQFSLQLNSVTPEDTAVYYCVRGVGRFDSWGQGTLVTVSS VL: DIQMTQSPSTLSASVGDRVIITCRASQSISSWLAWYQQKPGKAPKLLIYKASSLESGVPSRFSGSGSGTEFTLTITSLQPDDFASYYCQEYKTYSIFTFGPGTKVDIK	19.5
AB1370083: anti-FRα fully human IgG1 antibody; VH SEQ ID NO: 43, VL SEQ ID NO: 44 (antibody, V domains shown) VH: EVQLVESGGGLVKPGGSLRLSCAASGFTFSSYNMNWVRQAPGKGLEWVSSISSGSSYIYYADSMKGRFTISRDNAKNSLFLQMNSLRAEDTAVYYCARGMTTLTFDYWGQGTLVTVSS VL: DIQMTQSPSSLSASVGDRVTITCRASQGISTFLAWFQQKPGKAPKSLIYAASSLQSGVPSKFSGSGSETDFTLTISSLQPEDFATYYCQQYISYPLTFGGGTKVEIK	11.0
